# Tested on: N. gonorrhoeae WHO Q
# experiment summary: Liquid broth MIC in Fastidious broth
# Assay type: cell-based
# setup conditions: Neisseria gonorrhoeae, read-out: Minimum Inhibitory Concentration, N. gonorrhoeae WHO Q
# Experimental: Example V: In Vitro Antibacterial Assays for N. gonorrhoeae Strains Additional antibacterial testing of the series was performed in 8 reference strains of N. gonorrhoeae (ATCC 49226, FA1090, WHO G, WHO L, WHO K, H041, WHO Z, and WHO Q). ATCC 49226, FA1090, WHO G, and WHO L produce wild type or wild-type like PBP2. […] After the dilution plates were set up, direct suspensions were then diluted in a cuvette containing sterile saline and the optical density was measured at 600 nm. […]
result type: MIC

# annotated cases, reported MIC shown
Input line: Using the record for CCN1CCN(C(=O)N[C@H](C(=O)N[C@H]2Cc3cccc(C(=O)O)c3OB2O)c2cc(Cl)c(O)cc2Cl)C(=O)C1=O (single isomer, unassigned) , report its MIC.
Output line: > 64 mg/L

Input line: Same question for NS(=O)(=O)c1cc(O)cc(C(NC(=O)N2CCN(Cc3c(F)cc(O)c(O)c3Cl)C(=O)C2=O)C(=O)N[C@H]2Cc3cccc(C(=O)O)c3OB2O)c1 (stereo partly drawn) please.
Output line: > 64 mg/L

Input line: Same question for CCN1CCN(C(=O)NC(C(=O)N[C@H]2Cc3cccc(C(=O)O)c3OB2O)c2cccc(NS(C)(=O)=O)c2)C(=O)C1=O (stereo partly drawn) please.
Output line: > 64 mg/L

Input line: Same question for NCCN1CCN(C(=O)N[C@@H](C(=O)N[C@H]2Cc3cccc(C(=O)O)c3OB2O)c2cc(F)c(O)c(F)c2F)C(=O)C1=O (single isomer, unassigned) please.
Output line: 16 to 32 mg/L

Input line: Same question for CCN1CCN(C(=O)NC(C(=O)N[C@H]2Cc3cccc(C(=O)O)c3OB2O)c2cc(Cl)c(O)cc2F)C(=O)C1=O (stereo partly drawn) please.
Output line: 16 to 32 mg/L

Proceeding to the next compound to report its MIC.
Input line: Using the record for NCCN1CCN(C(=O)N[C@H](C(=O)N[C@H]2Cc3cccc(C(=O)O)c3OB2O)c2ccc(O)cc2F)C(=O)C1=O (single isomer, unassigned) , report its MIC.
Output line: > 64 mg/L
